These entries and their values trace back to the supplement of paper PMC13380429.

- Test system: HepG2
- Test Protocol: cell viability relative to DMSO; higher = less toxic
- Reported Conditions: 72 h; 10000 nM
The following compounds are listed with their measured cell viability values.
Outcome Measure: cell viability (%)

Compound | Result Unit | Observed Value
CC1=C(/C=C/C(=C/C=C/C(C)=C/C(=O)O)c2ccc(C)cc2)C(C)(C)CCC1 | % | 98.4
Cl/C=C\C[N+]12CN3CN(CN(C3)C1)C2 [1-((Z)-3-chloroallyl)-1,3,5,7-tetraazaadamantan-1-ium] | % | 97.7
O=C1CS[C@@H](c2ccccc2Cl)c2cc(Cl)ccc2N1 (racemic) | % | 102
Clc1ccccc1C(c1ccccc1)(c1ccccc1)n1ccnc1 | % | 56.9
CCS(=O)(=O)N1CCC[C@@H]2CN3CCc4cc(OC)ccc4[C@@H]3C[C@@H]21 | % | 102
N#C/C(=C\c1ccc(O)c(O)c1)C(=O)NCCCCc1ccccc1 | % | 71.1
O=[N+]([O-])C(Br)(CO)CO | % | 108
Cc1ccccc1OCC(O)CO (stereo not given) | % | 99.8
CCC(=O)NC[C@@H]1C[C@H]1c1cccc2c1CCO2 | % | 98.5
Oc1ccc2ccccc2c1SSc1c(O)ccc2ccccc12 | % | 103
